Assign Selectivity Index (SI) to each entry below.
tested on: Capan-2; test: MTT cell viability assay, Capan-2; assay type: cell-based; details: IC50 in normal (HFF-1) fibroblast cells/IC50 in Capan-2
One number for each entry.

| compound | Selectivity Index (SI) |
| --- | --- |
| CC(=O)Nc1ccc(NC(=O)C(Sc2nc3cc(Cl)ccc3s2)c2ccccc2)cc1 (centres unmarked) | 0.33 |
| O=C(Nc1cccc(F)c1)C(Sc1nc2cc(Cl)ccc2s1)c1ccccc1 (centres unmarked) | 0.53 |

Please give Selectivity Index (SI) for each item listed below.
1. O=C(Nc1cccc([N+](=O)[O-])c1)C(Sc1nc2cc(Cl)ccc2s1)c1ccccc1 (centres unmarked)
2. O=C(Nc1ccc(C(F)(F)F)cc1)C(Sc1nc2cc(Cl)ccc2s1)c1ccccc1 (centres unmarked)

1.38
1.03

Hi, could you look up Selectivity Index (SI) for each item in my list?
1. O=C(Nc1ccc([N+](=O)[O-])cc1)C(Sc1nc2cc(Cl)ccc2s1)c1ccccc1 (centres unmarked)
2. O=C(Nc1ccccc1)C(Sc1nc2cc(Cl)ccc2s1)c1ccccc1 (centres unmarked) [2b, reference compound]
3. O=C(Nc1ccc(Cl)c(Cl)c1)C(Sc1nc2cc(Cl)ccc2s1)c1ccccc1 (centres unmarked)
4. CC(=O)Nc1cccc(NC(=O)C(Sc2nc3cc(Cl)ccc3s2)c2ccccc2)c1 (centres unmarked)

1.18
1.09
0.77
1.99

Source listed as paper PMC9412555.
